Recorded values, source paper PMC10257182.

- System: senescent IMR90 ER:RAS cells (4-OHT-induced)
- Measurement protocol: Nuclei count (Hoechst, high content imaging) senolytic assay, oncogene-induced senescence (OIS) model, senescent cells
- Format: cell-based, human
- Applied conditions: Homo sapiens, IMR-90, 72 h, Senescent, log (dose) [M] -7.66, 72 h, mean n=3 (Fig 3C); read-out: Mean % Cell Survival
Please go through the items and note down their viability at 0.02188 µM.
Report the figure in % without appending any unit label.

stdin: What measured viability at 0.02188 µM is associated with CO[C@H]1C[C@H](O[C@H]2CC[C@@]3(C)[C@H](CC[C@@H]4[C@@H]3CC[C@]3(C)[C@@H](C5=CC(=O)OC5)[C@@H](OC(C)=O)C[C@]43O)C2)O[C@@H](C)[C@@H]1O on senescent IMR90 ER:RAS cells (4-OHT-induced)?
stdout: 13.4

stdin: What measured viability at 0.02188 µM is associated with Cc1c(-c2c(F)cc(C(N)=O)c3[nH]c4c(c23)CC[C@H](C(C)(C)O)C4)cccc1-n1c(=O)c2cccc(F)c2n(C)c1=O on senescent IMR90 ER:RAS cells (4-OHT-induced)?
stdout: 95.3

stdin: What measured viability at 0.02188 µM is associated with CO[C@H]1C[C@@H]2CC[C@@H](C)[C@@](O)(O2)C(=O)C(=O)N2CCCC[C@H]2C(=O)O[C@H]([C@H](C)C[C@@H]2CC[C@@H](O)[C@H](OC)C2)CC(=O)[C@H](C)/C=C(\C)[C@@H](O)[C@@H](OC)C(=O)[C@H](C)C[C@H](C)/C=C/C=C/C=C/1C [Rapamycin, rapamycin, reference compound] on senescent IMR90 ER:RAS cells (4-OHT-induced)?
stdout: 93.9

stdin: What measured viability at 0.02188 µM is associated with COc1cc(/C=C/C(=O)O[C@H]2CC[C@]34C[C@]35CC[C@]3(C)[C@@H]([C@H](C)CCC=C(C)C)CC[C@@]3(C)[C@@H]5CC[C@H]4C2(C)C)ccc1O on senescent IMR90 ER:RAS cells (4-OHT-induced)?
stdout: 154
